Quick note: these are pIC50 numbers for system: Fatty Acid Synthase Keto-reductase Domain (FASN KR) (Homo sapiens)
Sequence (P49327 whole entry, the tested form may be a part): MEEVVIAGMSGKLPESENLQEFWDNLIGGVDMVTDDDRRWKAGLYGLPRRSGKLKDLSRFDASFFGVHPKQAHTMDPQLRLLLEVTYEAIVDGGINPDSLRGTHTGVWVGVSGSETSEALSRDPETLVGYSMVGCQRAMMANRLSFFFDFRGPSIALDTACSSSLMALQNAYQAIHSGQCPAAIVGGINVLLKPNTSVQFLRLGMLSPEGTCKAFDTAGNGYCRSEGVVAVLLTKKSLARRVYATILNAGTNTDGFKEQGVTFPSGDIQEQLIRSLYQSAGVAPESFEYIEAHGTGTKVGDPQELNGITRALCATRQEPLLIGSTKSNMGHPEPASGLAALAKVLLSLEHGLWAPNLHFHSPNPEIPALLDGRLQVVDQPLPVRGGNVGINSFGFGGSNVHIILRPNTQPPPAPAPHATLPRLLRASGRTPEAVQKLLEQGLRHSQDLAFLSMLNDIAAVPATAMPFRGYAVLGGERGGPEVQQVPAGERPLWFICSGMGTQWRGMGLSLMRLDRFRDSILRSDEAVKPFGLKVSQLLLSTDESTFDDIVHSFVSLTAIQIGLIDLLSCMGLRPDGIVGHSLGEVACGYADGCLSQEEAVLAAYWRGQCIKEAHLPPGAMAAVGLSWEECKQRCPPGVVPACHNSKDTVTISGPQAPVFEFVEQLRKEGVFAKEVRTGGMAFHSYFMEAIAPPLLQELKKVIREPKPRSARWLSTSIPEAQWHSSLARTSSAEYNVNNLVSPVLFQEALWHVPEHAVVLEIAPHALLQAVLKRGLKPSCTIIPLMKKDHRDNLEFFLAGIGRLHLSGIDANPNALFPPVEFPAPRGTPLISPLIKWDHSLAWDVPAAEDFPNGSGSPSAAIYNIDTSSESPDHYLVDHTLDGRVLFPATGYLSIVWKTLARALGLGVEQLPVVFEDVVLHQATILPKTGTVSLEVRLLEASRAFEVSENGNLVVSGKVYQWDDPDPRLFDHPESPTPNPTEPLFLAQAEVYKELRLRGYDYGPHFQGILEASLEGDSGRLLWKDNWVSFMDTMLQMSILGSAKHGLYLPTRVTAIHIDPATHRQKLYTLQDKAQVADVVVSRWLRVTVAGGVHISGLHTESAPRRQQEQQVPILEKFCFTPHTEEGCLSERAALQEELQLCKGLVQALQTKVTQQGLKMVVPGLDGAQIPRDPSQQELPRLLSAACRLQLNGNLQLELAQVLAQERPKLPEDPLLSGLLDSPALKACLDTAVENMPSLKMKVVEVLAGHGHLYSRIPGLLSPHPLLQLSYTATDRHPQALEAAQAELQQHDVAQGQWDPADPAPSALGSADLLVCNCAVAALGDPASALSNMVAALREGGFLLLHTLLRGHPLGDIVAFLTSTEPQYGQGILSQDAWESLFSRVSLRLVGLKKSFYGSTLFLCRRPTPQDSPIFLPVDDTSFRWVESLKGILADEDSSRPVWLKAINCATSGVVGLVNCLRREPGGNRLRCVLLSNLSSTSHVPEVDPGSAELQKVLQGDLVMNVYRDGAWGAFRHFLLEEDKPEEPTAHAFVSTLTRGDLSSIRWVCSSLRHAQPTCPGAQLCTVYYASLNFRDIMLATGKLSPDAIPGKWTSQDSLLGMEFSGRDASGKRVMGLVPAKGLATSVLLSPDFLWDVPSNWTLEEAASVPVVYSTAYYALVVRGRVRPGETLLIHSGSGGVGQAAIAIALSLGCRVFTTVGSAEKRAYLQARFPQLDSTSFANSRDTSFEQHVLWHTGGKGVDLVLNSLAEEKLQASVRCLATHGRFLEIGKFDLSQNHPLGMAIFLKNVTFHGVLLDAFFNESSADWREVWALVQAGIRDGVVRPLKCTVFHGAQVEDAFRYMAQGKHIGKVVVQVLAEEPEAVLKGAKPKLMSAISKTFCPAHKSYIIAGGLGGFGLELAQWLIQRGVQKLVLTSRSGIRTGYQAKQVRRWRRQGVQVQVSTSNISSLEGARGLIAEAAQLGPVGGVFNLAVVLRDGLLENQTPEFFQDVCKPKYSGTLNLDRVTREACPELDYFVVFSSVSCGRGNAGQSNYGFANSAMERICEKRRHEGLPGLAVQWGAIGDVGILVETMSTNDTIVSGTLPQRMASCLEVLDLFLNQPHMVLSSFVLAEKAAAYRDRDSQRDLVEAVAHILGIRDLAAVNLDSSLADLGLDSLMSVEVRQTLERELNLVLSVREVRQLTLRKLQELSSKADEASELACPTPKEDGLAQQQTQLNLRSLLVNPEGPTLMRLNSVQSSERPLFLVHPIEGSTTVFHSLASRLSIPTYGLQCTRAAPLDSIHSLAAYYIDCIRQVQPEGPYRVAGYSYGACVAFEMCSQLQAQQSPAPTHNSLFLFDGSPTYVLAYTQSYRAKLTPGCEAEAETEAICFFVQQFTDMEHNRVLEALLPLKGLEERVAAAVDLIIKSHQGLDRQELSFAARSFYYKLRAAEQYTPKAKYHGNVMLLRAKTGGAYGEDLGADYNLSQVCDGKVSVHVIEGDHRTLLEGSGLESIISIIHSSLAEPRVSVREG
One number for each entry, as −log10 of the molar value.

Answered examples (3):
> print(dat)
                                   compound  property.label  measured.number
1  O=C(C1CC1)N1CC[C@@H](CN2C(=O)C3(CCCC3)N=C2c2ccc(-c3ccc4cn[nH]c4c3)cc2F)C1           pIC50             7.26
2  CC(O)C(=O)N1CC[C@@H](CN2C(=O)C3(CCOC3)N=C2c2ccc(-c3ccc4cccnc4c3)cc2)C1 (stereo partly shown)           pIC50             5.86
3  O=C(C1CC1)N1CC[C@@H](CN2C(=O)C3(CCCC3)N=C2c2ccc(-c3ccc4sccc4c3)cc2F)C1           pIC50             7.44

Next compound, please.
Lab note: measured pIC50 of COC(=O)N1CCC2(CC1)N=C(c1ccc(-c3ccc4occc4c3)cc1)N(C[C@@H]1CCN(C(=O)C3CC3)C1)C2=O was 6.52
